PC-3 flu Tumor listing for selected molecules.
- Tested on: PC-3 PIP/flu tumor-bearing mice
- protocolDetails: Biodistribution study in PC-3 PIP/flu tumor-bearing mice
- Type: in vivo, athymic nude Balb/c mice
- appliedConditions: 24 h p.i., PSMA-negative tumor xenograft, mice
The reply should contain only the number, in % IA/g.

Reference set (2 entries):
CC(C)Cc1ccc(C(C)C(=O)NC(CC(=O)O)C(=O)NCCCCC(NC(=O)CN2CCN(CC(=O)O)CCN(CC(=O)O)CCN(CC(=O)O)CC2)C(=O)NCC2CCC(C(=O)NC(Cc3ccc4ccccc4c3)C(=O)NCCCCC(NC(=O)NC(CCC(=O)O)C(=O)O)C(=O)O)CC2)cc1 (stereo not drawn) [^177Lu-Ibu-Dα-PSMA, metal not drawn]
0.38
CC(C)Cc1ccc(C(C)C(=O)NC(CCN)C(=O)NCCCCC(NC(=O)CN2CCN(CC(=O)O)CCN(CC(=O)O)CCN(CC(=O)O)CC2)C(=O)NCC2CCC(C(=O)NC(Cc3ccc4ccccc4c3)C(=O)NCCCCC(NC(=O)NC(CCC(=O)O)C(=O)O)C(=O)O)CC2)cc1 (stereo not drawn) [^177Lu-Ibu-DAB-PSMA, metal not drawn]
0.17

Below: the item to evaluate.
Exercise: Return PC-3 flu Tumor measured with PC-3 PIP/flu tumor-bearing mice given this molecule: CC(C)Cc1ccc(C(C)C(=O)NC(CC(=O)NCCCCC(NC(=O)CN2CCN(CC(=O)O)CCN(CC(=O)O)CCN(CC(=O)O)CC2)C(=O)NCC2CCC(C(=O)NC(Cc3ccc4ccccc4c3)C(=O)NCCCCC(NC(=O)NC(CCC(=O)O)C(=O)O)C(=O)O)CC2)C(=O)O)cc1 (stereo not drawn) [^177Lu-Ibu-Dβ-PSMA, metal not drawn]
Solution: 0.79

###

- Tested on: PC-3 PIP/flu tumor-bearing mice
- protocolDetails: Biodistribution study in PC-3 PIP/flu tumor-bearing mice
- Assay type: in vivo, athymic nude Balb/c mice
- appliedConditions: 4 h p.i., PSMA-negative tumor xenograft, mice
readoutName: PC-3 flu Tumor (% IA/g)
The reply should contain only the number, in % IA/g.

Reference set (3 entries):
CC(C)Cc1ccc(C(C)C(=O)NC(CC(=O)O)C(=O)NCCCCC(NC(=O)CN2CCN(CC(=O)O)CCN(CC(=O)O)CCN(CC(=O)O)CC2)C(=O)NCC2CCC(C(=O)NC(Cc3ccc4ccccc4c3)C(=O)NCCCCC(NC(=O)NC(CCC(=O)O)C(=O)O)C(=O)O)CC2)cc1 (stereo not shown) [^177Lu-Ibu-Dα-PSMA, metal not drawn]
1.00
CC(C)Cc1ccc(C(C)C(=O)NC(CC(N)=O)C(=O)NCCCCC(NC(=O)CN2CCN(CC(=O)O)CCN(CC(=O)O)CCN(CC(=O)O)CC2)C(=O)NCC2CCC(C(=O)NC(Cc3ccc4ccccc4c3)C(=O)NCCCCC(NC(=O)NC(CCC(=O)O)C(=O)O)C(=O)O)CC2)cc1 (stereo not shown) [^177Lu-Ibu-N-PSMA, metal not drawn]
1.15
CC(C)Cc1ccc(C(C)C(=O)NC(CC(=O)NCCCCC(NC(=O)CN2CCN(CC(=O)O)CCN(CC(=O)O)CCN(CC(=O)O)CC2)C(=O)NCC2CCC(C(=O)NC(Cc3ccc4ccccc4c3)C(=O)NCCCCC(NC(=O)NC(CCC(=O)O)C(=O)O)C(=O)O)CC2)C(=O)O)cc1 (stereo not shown) [^177Lu-Ibu-Dβ-PSMA, metal not drawn]
3.86

Below: the item to evaluate.
Exercise: # lookup: PC-3 flu Tumor of CC(C)Cc1ccc(C(C)C(=O)NCC[C@H](NC(=O)CN2CCN(CC(=O)O)CCN(CC(=O)O)CCN(CC(=O)O)CC2)C(=O)NCC2CCC(C(=O)N[C@@H](Cc3ccc4ccccc4c3)C(=O)NCCCC[C@H](NC(=O)N[C@@H](CCC(=O)O)C(=O)O)C(=O)O)CC2)cc1 (stereo partly shown) [^177Lu-Ibu-sPSMA, metal not drawn]
Solution: 2.0

###

- Tested on: PC-3 PIP/flu tumor-bearing mice
- protocolDetails: Biodistribution study in PC-3 PIP/flu tumor-bearing mice
- Type: in vivo, athymic nude Balb/c mice
- appliedConditions: 4 h p.i., PC-3 PIP/flu tumor-bearing mice
Intestines listing for selected molecules.
The reply should contain only the number, in % IA/g.

Reference set (5 entries):
CC(C)Cc1ccc(C(C)C(=O)NC(CC(N)=O)C(=O)NCCCCC(NC(=O)CN2CCN(CC(=O)O)CCN(CC(=O)O)CCN(CC(=O)O)CC2)C(=O)NCC2CCC(C(=O)NC(Cc3ccc4ccccc4c3)C(=O)NCCCCC(NC(=O)NC(CCC(=O)O)C(=O)O)C(=O)O)CC2)cc1 (stereo not drawn) [^177Lu-Ibu-N-PSMA, metal not drawn]
0.50
CC(C)Cc1ccc(C(C)C(=O)NC(CCN)C(=O)NCCCCC(NC(=O)CN2CCN(CC(=O)O)CCN(CC(=O)O)CCN(CC(=O)O)CC2)C(=O)NCC2CCC(C(=O)NC(Cc3ccc4ccccc4c3)C(=O)NCCCCC(NC(=O)NC(CCC(=O)O)C(=O)O)C(=O)O)CC2)cc1 (stereo not drawn) [^177Lu-Ibu-DAB-PSMA, metal not drawn]
0.71
CC(C)Cc1ccc(C(C)C(=O)NCCCCC(NC(=O)CN2CCN(CC(=O)O)CCN(CC(=O)O)CCN(CC(=O)O)CC2)C(=O)NCC2CCC(C(=O)NC(Cc3ccc4ccccc4c3)C(=O)NCCCCC(NC(=O)NC(CCC(=O)O)C(=O)O)C(=O)O)CC2)cc1 (stereo not drawn) [^177Lu-Ibu-PSMA, metal not drawn]
1.00
CC(C)Cc1ccc(C(C)C(=O)NC(CC(=O)NCCCCC(NC(=O)CN2CCN(CC(=O)O)CCN(CC(=O)O)CCN(CC(=O)O)CC2)C(=O)NCC2CCC(C(=O)NC(Cc3ccc4ccccc4c3)C(=O)NCCCCC(NC(=O)NC(CCC(=O)O)C(=O)O)C(=O)O)CC2)C(=O)O)cc1 (stereo not drawn) [^177Lu-Ibu-Dβ-PSMA, metal not drawn]
1.81
CC(C)Cc1ccc(C(C)C(=O)NC(CC(=O)O)C(=O)NCCCCC(NC(=O)CN2CCN(CC(=O)O)CCN(CC(=O)O)CCN(CC(=O)O)CC2)C(=O)NCC2CCC(C(=O)NC(Cc3ccc4ccccc4c3)C(=O)NCCCCC(NC(=O)NC(CCC(=O)O)C(=O)O)C(=O)O)CC2)cc1 (stereo not drawn) [^177Lu-Ibu-Dα-PSMA, metal not drawn]
0.49

Below: the item to evaluate.
Exercise: Return Intestines measured with PC-3 PIP/flu tumor-bearing mice given this molecule: CC(C)Cc1ccc(C(C)C(=O)NCC[C@H](NC(=O)CN2CCN(CC(=O)O)CCN(CC(=O)O)CCN(CC(=O)O)CC2)C(=O)NCC2CCC(C(=O)N[C@@H](Cc3ccc4ccccc4c3)C(=O)NCCCC[C@H](NC(=O)N[C@@H](CCC(=O)O)C(=O)O)C(=O)O)CC2)cc1 (stereo partly drawn) [^177Lu-Ibu-sPSMA, metal not drawn]
Solution: 1.1

###

- System: PC-3 PIP/flu tumor-bearing mice
- protocolDetails: Biodistribution study in PC-3 PIP/flu tumor-bearing mice
- Assay type: in vivo, athymic nude Balb/c mice
- appliedConditions: 4 h p.i., PC-3 PIP/flu tumor-bearing mice
Response field label: string, one of true (Lung strictly below 4 % IA/g) or false.

Some entries whose results are on file:
CC(C)Cc1ccc(C(C)C(=O)NCC[C@H](NC(=O)CN2CCN(CC(=O)O)CCN(CC(=O)O)CCN(CC(=O)O)CC2)C(=O)NCC2CCC(C(=O)N[C@@H](Cc3ccc4ccccc4c3)C(=O)NCCCC[C@H](NC(=O)N[C@@H](CCC(=O)O)C(=O)O)C(=O)O)CC2)cc1 (stereo partly drawn) [^177Lu-Ibu-sPSMA, metal not drawn]
false
CC(C)Cc1ccc(C(C)C(=O)NCCCCC(NC(=O)CN2CCN(CC(=O)O)CCN(CC(=O)O)CCN(CC(=O)O)CC2)C(=O)NCC2CCC(C(=O)NC(Cc3ccc4ccccc4c3)C(=O)NCCCCC(NC(=O)NC(CCC(=O)O)C(=O)O)C(=O)O)CC2)cc1 (stereo not drawn) [^177Lu-Ibu-PSMA, metal not drawn]
true
CC(C)Cc1ccc(C(C)C(=O)NC(CC(=O)O)C(=O)NCCCCC(NC(=O)CN2CCN(CC(=O)O)CCN(CC(=O)O)CCN(CC(=O)O)CC2)C(=O)NCC2CCC(C(=O)NC(Cc3ccc4ccccc4c3)C(=O)NCCCCC(NC(=O)NC(CCC(=O)O)C(=O)O)C(=O)O)CC2)cc1 (stereo not drawn) [^177Lu-Ibu-Dα-PSMA, metal not drawn]
true
CC(C)Cc1ccc(C(C)C(=O)NC(CCN)C(=O)NCCCCC(NC(=O)CN2CCN(CC(=O)O)CCN(CC(=O)O)CCN(CC(=O)O)CC2)C(=O)NCC2CCC(C(=O)NC(Cc3ccc4ccccc4c3)C(=O)NCCCCC(NC(=O)NC(CCC(=O)O)C(=O)O)C(=O)O)CC2)cc1 (stereo not drawn) [^177Lu-Ibu-DAB-PSMA, metal not drawn]
true
CC(C)Cc1ccc(C(C)C(=O)NC(CC(=O)NCCCCC(NC(=O)CN2CCN(CC(=O)O)CCN(CC(=O)O)CCN(CC(=O)O)CC2)C(=O)NCC2CCC(C(=O)NC(Cc3ccc4ccccc4c3)C(=O)NCCCCC(NC(=O)NC(CCC(=O)O)C(=O)O)C(=O)O)CC2)C(=O)O)cc1 (stereo not drawn) [^177Lu-Ibu-Dβ-PSMA, metal not drawn]
false

Exercise: Is the reported Lung for CC(C)Cc1ccc(C(C)C(=O)NC(CC(N)=O)C(=O)NCCCCC(NC(=O)CN2CCN(CC(=O)O)CCN(CC(=O)O)CCN(CC(=O)O)CC2)C(=O)NCC2CCC(C(=O)NC(Cc3ccc4ccccc4c3)C(=O)NCCCCC(NC(=O)NC(CCC(=O)O)C(=O)O)C(=O)O)CC2)cc1 (stereo not drawn) [^177Lu-Ibu-N-PSMA, metal not drawn] strictly below 4 % IA/g?
Solution: true
